Quick reference: AC35 of the listed items.
# System: D54 LucT luciferase reporter counterscreen, luminescence, 24 h
# method: reporter signal increase, D54 LucT cells – cell-based, luminescence, cherry pick, counter-screen for N-linked glycosylation inhibitor project, dose response (AID 624404)
Results filed as inconclusive are left out.
readout label: AC35

| sample smiles | experimental result |
| --- | --- |
| COc1ccccc1/C=N/NC(=O)c1cc2c(OC)c(OC)ccc2[nH]1 | 987 nM |
| Cc1cc(NCCCn2ccnc2)n2nc(C)c(-c3ccccc3)c2n1 | 2290 nM |
| Cc1cccc(NC(=O)c2cnn3ccccc23)c1C | 532 nM |
| COc1ccc(/C=N\NC(=O)c2sccc2C)cc1Cn1nc(C)cc1C | 280 nM |
| CC(C)(C)S(=O)(=O)N1C[C@@H]2CC/C=C\C/C(c3ccccc3)=C\2[C@H]1CCO | 645 nM |
| Cc1cc(=O)[nH]c2c(C)cc(S(=O)(=O)N3CCCCC3)cc12 | 411 nM |
| CC1(C)Cc2c(c(N3CCOCC3)nc3snc(N)c23)CO1 | 1200 nM |

====

Quick reference: AC35 of the listed items.
# System: D54 LucT luciferase reporter counterscreen, luminescence, 24 h
# method: reporter signal increase, D54 LucT cells – cell-based, luminescence, cherry pick, counter-screen for N-linked glycosylation inhibitor project, dose response (AID 624404)
Records with an inconclusive call do not appear.

| compound | AC35 |
| --- | --- |
| O=C(COC(=O)c1cccc(Br)c1)Nc1cccc2c1C(=O)c1ccccc1C2=O | 1150 nM |
| O=C(N/N=C/c1ccco1)c1ccccc1OCc1ccccc1Cl | 1110 nM |
| NC(=O)c1cccc(-c2coc3c(C(=O)NCc4ccccc4)cccc23)c1 | 3070 nM |
| CC(=O)NC(c1cccc(F)c1)c1nc(-c2ccccc2C)cs1 (stereo not drawn) | 263 nM |
| CCN(CCCNC(=O)CCCOc1cc(=O)n(C)c2ccccc12)Cc1ccccc1 | 510 nM |
| C/C(=N\O)C(=O)C(CN1CCCCC1)CN1CCCCC1 | 1210 nM |
| c1ccc(-c2cc(-c3nnc4n3N=C(c3ccc5ccccc5c3)CS4)[nH]n2)cc1 | 205 nM |
| COc1cc(C#Cc2ccc3cc(CCCO)oc(=O)c3c2)cc(OC)c1 | 62.8 nM |
| Cc1ccnc(NC(=O)C(Cc2ccccc2)NC(=O)c2ccccc2)c1 (stereo not drawn) | 335 nM |
| O=c1cc(-c2ccccc2)nc2cc(-c3ccc(F)cc3)[nH]n12 | 2190 nM |
| O=c1cc(-c2ccccc2)[nH]c2cc(F)ccc12 | 2380 nM |
| O=C(NCCCn1ccnc1)c1cc(-c2ccccc2)on1 | 1480 nM |
| COc1ccc(-n2c(=S)[nH]c3cc(C(=O)Nc4ccc(F)cc4)ccc3c2=O)c(OC)c1 | 1470 nM |

====

# System: D54 LucT luciferase reporter counterscreen, luminescence, 24 h
# method: reporter signal increase, D54 LucT cells – cell-based, luminescence, cherry pick, counter-screen for N-linked glycosylation inhibitor project, dose response (AID 624404)
Records with an inconclusive call do not appear.
Quick reference: AC35 of the listed items.
readout label: AC35

| compound | readout label | experimental result |
| --- | --- | --- |
| Cc1ccc(C(=O)N/C(=C\c2cccs2)C(=O)NCCc2c[nH]c3ccccc23)cc1C | AC35 | 116 nM |
| CCN(CC)S(=O)(=O)c1ccc(N2CCOCC2)c(NC(=O)c2[nH]c(C)c(C(C)=O)c2C)c1 | AC35 | 330 nM |
| CCOC(=O)N1CCC(NC(=O)c2ccc3c(c2)N=C(C)c2c(C)ccc(C)c2S3)CC1 | AC35 | 940 nM |
| O=C(NCCCN1CCOCC1)c1cc(-c2cccs2)on1 | AC35 | 3630 nM |
| CC(=O)Nc1ccc(Nc2ccc3c4c(cc(=O)n3C)-c3ccccc3C(=O)c24)cc1 | AC35 | 345 nM |
| Nc1[nH]nc2nc(NCc3ccccc3)c3c(c12)CCN(Cc1ccccc1)C3 | AC35 | 2840 nM |
| CN(Cc1ccccc1)c1nc2c(c(=O)n(C)c(=O)n2C)n1CCCc1ccccc1 | AC35 | 893 nM |
| Cc1noc(C)c1-c1ccc(C(=O)NCc2cccnc2)c2occc12 | AC35 | 297 nM |
| COc1ccc(NC(=O)c2cc3c(=O)n(C)c4ccccc4c3n2C)cc1OC | AC35 | 4000 nM |
| CCOC(=O)N/N=C/c1ccc(N(CC)CC)cc1O | AC35 | 2580 nM |
| CCN(CCCNC(=O)COc1cc(=O)n(CC)c2ccccc12)Cc1ccccc1 | AC35 | 517 nM |
| COc1cccc(C2=CC(c3cccs3)n3nnnc3N2)c1 (stereo not drawn) | AC35 | 951 nM |
| CN1/C(=C/C=C(/C#N)C(N)=O)C(C)(C)c2ccccc21 | AC35 | 7.24 nM |
| COc1ccc(CC(=O)Nc2ccc(-c3ccc4nnc(C)n4n3)cc2)cc1OC | AC35 | 1800 nM |
| Cn1c(=O)n(C)c2cc(NS(=O)(=O)c3ccc(F)cc3)ccc21 | AC35 | 1240 nM |
| COc1cc(OC)c(N2CC(C(=O)Nc3cc(Cl)ccc3N3CCOCC3)CC2=O)cc1Cl (stereo not drawn) | AC35 | 1260 nM |
| O=C(c1cn(Cc2ccccc2)nc1-c1ccccc1)N1CCN(c2ccccn2)CC1 | AC35 | 984 nM |
| COc1cc(-c2[nH]ncc2CN2CCSCC2)cc(OC)c1OC | AC35 | 3500 nM |

====

Quick reference: AC35 of the listed items.
# Tested on: D54 LucT luciferase reporter counterscreen, luminescence, 24 h
# method: reporter signal increase, D54 LucT cells – cell-based, luminescence, cherry pick, counter-screen for N-linked glycosylation inhibitor project, dose response (AID 624404)
Inconclusive results are not listed.

| compound | AC35 |
| --- | --- |
| COc1ccccc1-c1csc(C(NC(C)=O)c2ccccc2)n1 (stereo not drawn) | 643 nM |
| NNC(=O)c1ccc2nc(-c3ccc(Br)cc3)cn2c1 | 780 nM |
| CCC(C)[C@H](NC(=O)N1CC(=O)Nc2ccccc21)C(=O)Nc1ccccc1C (stereo partly drawn) | 2750 nM |
| COc1cccc(C2=NOC(C(=O)NCc3ccc(F)cc3)C2)c1 (stereo not drawn) | 4170 nM |
| COC(=O)[C@@H]1C[C@H]1[C@@H](NP(=O)(c1ccccc1)c1ccccc1)c1ccccc1 | 3100 nM |
| COc1ccc2c(c1)OC[C@H]1[C@H]2N2C(=O)c3ccc(F)cc3NC(=O)[C@@]2(C)[C@H]1c1ccccc1 | 1070 nM |
| OC1CCCN(Cc2ccc3ccc4cccc5ccc2c3c45)C1 (stereo not drawn) | 890 nM |
| CCc1ccc(N2C(=O)Nc3ccccc3C2(O)C(=O)N2CCN(c3ccccn3)CC2)cc1 (stereo not drawn) | 493 nM |
| COc1ccc(CNC(=O)C/C(C)=N/NC(=O)COc2ccc(C)cc2Br)cc1 | 3090 nM |
| COc1cc2c(cc1OC)CN(c1ccc(C(F)(F)F)cn1)CC2 | 2500 nM |
| N=c1c(S(=O)(=O)c2ccc(Cl)cc2)cc2c(=O)n3ccccc3nc2n1CCc1ccccc1 | 564 nM |
| CS(=O)(=O)c1cccc(C(=O)Nc2ccc(-c3nc4ccccc4[nH]3)cc2)c1 | 3750 nM |
| CC(Nc1nc(-c2cccnc2)nc2ccccc12)c1ccc(F)cc1 (stereo not drawn) | 3450 nM |
| COc1cc(/C=C/C(=O)OCC(=O)NCc2ccc(F)cc2)ccc1O | 88.1 nM |
| COc1ccc(-c2cc(C(=O)NCC(c3ccccc3)N(C)C)c3ccccc3n2)cc1OC (stereo not drawn) | 1100 nM |
| Cc1ccc2nc(-c3ccccc3)cc(C(=O)N3CC(C)OC(C)C3)c2c1 (stereo not drawn) | 1920 nM |
| O=C(Nc1cc(=O)[nH]c(=O)[nH]1)c1cc(Cl)ccc1Cl | 3150 nM |
| CN(Cc1ccccc1)c1nc2c(c(=O)[nH]c(=O)n2C)n1CCCc1ccccc1 | 909 nM |
| NC(=O)c1cccc(-c2ccnc3c2CC(C(=O)NCc2ccccc2)O3)c1 (stereo not drawn) | 283 nM |
| CCc1cccc(CC)c1NC(=O)CN1C2CCCC1CC(NC(=O)Nc1cccc(OC)c1)C2 (stereo not drawn) | 3140 nM |
| CCCCNC(=O)c1cc(-c2ccc(F)cc2)on1 | 806 nM |
| CCCCCC(O)C=CC1C(O)CC(O)C1CC=CCCCC(=O)O (stereo not drawn) | 3.82 nM |
| Cc1ccc(C(=O)N2CCN(Cc3ccccc3)CC2)cc1S(=O)(=O)N1CCOCC1 | 2960 nM |

====

Quick reference: AC35 of the listed items.
# Tested on: D54 LucT luciferase reporter counterscreen, luminescence, 24 h
# method: reporter signal increase, D54 LucT cells – cell-based, luminescence, cherry pick, counter-screen for N-linked glycosylation inhibitor project, dose response (AID 624404)
Results filed as inconclusive are left out.

| molecule | AC35 |
| --- | --- |
| Cc1ccc2nc(Cl)c(/C=C/C(=O)c3ccco3)cc2c1 | 1530 nM |
| COc1ccc(OC)c2nc3c(C(=O)NCCN(C)C)cccc3nc12 | 384 nM |
| CC(C)c1ccc(/C=N/NC(=O)c2ccccc2Cl)cc1 | 247 nM |
| Cc1cccc(/C=N\Nc2cn[nH]c(=O)c2Cl)c1 | 163 nM |
| COc1ccc(S(=O)(=O)N2CCCCC2)cc1NC(=O)c1[nH]c(C)c(C(C)=O)c1C | 621 nM |
| O=S(=O)([N-]c1nc2ccccc2nc1-n1cc[n+](Cc2ccccc2)c1)c1ccccc1 | 648 nM |
| CCCOc1ccc2ccccc2c1/C=N/n1c(C)nnc1-n1nc(C)cc1C | 18.4 nM |
| Cc1ccc2nc(-c3ccc(SCC(=O)Nc4nnc(C)s4)nc3)[nH]c2c1 | 22.4 nM |
| CCOC(=O)[C@H]1[C@H]2COc3ccc(OC)cc3[C@@H]2N2C(=O)c3cc(OC)c(OC)cc3NC(=O)[C@@]12C | 3030 nM |
| COc1ccc(/C=N/NC(=O)c2cccc(NC(=O)c3ccccc3Cl)c2)cc1 | 495 nM |
| CC#CC#Cc1cccc(=O)o1 | 407 nM |
| Cc1ccc(NC(=O)c2ncn(CCCNCc3ccccc3)n2)cc1C | 994 nM |
| Cn1c(=O)[nH]c(=O)c2c1nc(SCC(N)=O)n2Cc1cccc(Br)c1 | 421 nM |
| CCOC(=O)c1sc(Nc2nc(C)cc(C)n2)nc1C | 1070 nM |
| Cn1c(=O)cc(OCCCC(=O)NC2CCCC2)c2ccccc21 | 3240 nM |
| Cc1cc(-c2nnc3n2N=C(c2ccc(-c4ccccc4)cc2)CS3)n[nH]1 | 1260 nM |
| COc1ccc(OC)c(Nc2ncnc3c2cnn3-c2cccc(C)c2)c1 | 4590 nM |
| CC(=O)Nc1ccc(-c2ccnc3c2CC(C(=O)NCc2cccc(Cl)c2)O3)cc1 (stereo unspecified) | 57.6 nM |
| Cc1ccc(C)n1-c1cccc(NC(=O)c2ccccc2)c1 | 7120 nM |
| COCCNC(=O)c1cc(-c2ccccc2OC)on1 | 3840 nM |
| O=C(O)c1ccc(CN2C(=O)c3cccc4c([N+](=O)[O-])ccc(c34)C2=O)cc1 | 1140 nM |
| COc1ccc2c(c1)OC[C@H]1[C@H]2N2C(=O)c3ccc(C)cc3NC(=O)[C@@]2(C)[C@H]1c1ccccc1 | 658 nM |
| Cc1ccc(C=Nc2ccccc2C(N)=O)cc1 | 2750 nM |
| O=C(N/N=C/c1ccc(F)cc1)c1sccc1OCc1ccc(F)cc1 | 1580 nM |
| CSc1ncnc2c1ncn2CCCN[C@H](C)c1cccc2ccccc12 | 527 nM |
| CC(NC(=O)c1ccc2ccccc2n1)c1ccc(S(N)(=O)=O)cc1 (stereo unspecified) | 977 nM |
| COc1cccc(N2CCN(C(=O)c3ccc(CS(=O)c4ccc(Cl)cc4)o3)CC2)c1 (stereo unspecified) | 773 nM |
| CN(C)CCNc1cccc2sc3ccc(O)cc3c(=O)c12 | 1980 nM |
| C=CCOc1ccc(C(=O)Nc2ccccc2C(=O)NCc2cccnc2)cc1 | 109 nM |
| COc1cc2c(cc1OC)C(=O)N1[C@H]3c4ccccc4OC[C@@H]3[C@H](c3ccccc3)[C@]1(C)C(=O)N2 | 196 nM |
| COc1cc(C(=O)Nc2cc3c(cc2N2CCCCC2)n(C)c(=O)n3C)cc(OC)c1OC | 96.4 nM |
| CC(C)Sc1ccccc1C(=O)Nc1ccc2c(c1)n(C)c(=O)n2C | 1820 nM |
| COc1ccccc1-n1cnc2cc(NCc3cccs3)ccc21 | 266 nM |
| COc1ccc(-n2c(=S)[nH]c3cc(C(=O)Nc4ccc(C)c(F)c4)ccc3c2=O)c(OC)c1 | 245 nM |
| COC(=O)c1ccc2c(=O)n(Cc3ccc(C(=O)NC(C)C)cc3)c(=S)[nH]c2c1 | 4280 nM |
| O=C(N/N=C/c1ccco1)c1cc(-c2ccncc2)nc2ccccc12 | 7160 nM |
